Target: UniProt:Q9BDQ5
Sequence (Q9BDQ5 whole entry): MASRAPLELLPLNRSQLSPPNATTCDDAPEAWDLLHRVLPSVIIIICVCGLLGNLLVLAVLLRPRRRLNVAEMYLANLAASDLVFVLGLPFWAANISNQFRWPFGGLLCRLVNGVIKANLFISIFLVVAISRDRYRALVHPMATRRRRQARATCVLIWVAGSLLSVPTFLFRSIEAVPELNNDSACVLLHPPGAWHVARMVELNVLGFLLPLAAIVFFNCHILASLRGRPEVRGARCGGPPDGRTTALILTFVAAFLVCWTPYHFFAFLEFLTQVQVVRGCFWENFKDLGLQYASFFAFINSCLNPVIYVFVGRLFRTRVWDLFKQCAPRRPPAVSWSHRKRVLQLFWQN
Assay: Antagonist activity at dog bradykinin B1 receptor
assay-metric: IC50 (nM)
The response must be a number in nM with no trailing unit.

Q. Supply reported IC50 belonging to this molecule: O=C(C[C@@H]1C(=O)Nc2ccccc2N1S(=O)(=O)c1ccc(Cl)c(Cl)c1)NCCc1ccc(C2=NCCN2)cc1
A. 16.3

* * *

Assay: Half life in Sprague-Dawley rat at 2 mg/kg, iv
Format: ADME, organism-based
Parameters: dose 2 mg/kg, route intravenous
Conditions: in vivo
half-life for assorted molecules
The response must be a number in h with no trailing unit.

The examples below pair each entry with its known result.
O=C(NCCCN1CCCCC1)Nc1ccc(S(=O)(=O)Nc2ccccc2C(=O)c2ccccc2)cc1: 14
CCCN1C(=O)[C@H](NC(=O)Nc2ccc(N3CCN(c4ccncc4)CC3)cc2)N=C(CCc2ccccc2)c2ccccc21: 2.7
O=C(Nc1ccc(S(=O)(=O)Nc2ccccc2C(=O)c2ccccc2)cc1)OCC1CCCO1 (centres undefined): 9.7

Below: the item to evaluate.
Q. Supply reported half-life belonging to this molecule: CC(=O)Nc1ccc(S(=O)(=O)Nc2ccccc2C(=O)c2ccccc2)cc1
A. 0.3

* * *

Target: B1 bradykinin receptor (Homo sapiens, UniProt P46663)
Sequence (P46663 whole entry): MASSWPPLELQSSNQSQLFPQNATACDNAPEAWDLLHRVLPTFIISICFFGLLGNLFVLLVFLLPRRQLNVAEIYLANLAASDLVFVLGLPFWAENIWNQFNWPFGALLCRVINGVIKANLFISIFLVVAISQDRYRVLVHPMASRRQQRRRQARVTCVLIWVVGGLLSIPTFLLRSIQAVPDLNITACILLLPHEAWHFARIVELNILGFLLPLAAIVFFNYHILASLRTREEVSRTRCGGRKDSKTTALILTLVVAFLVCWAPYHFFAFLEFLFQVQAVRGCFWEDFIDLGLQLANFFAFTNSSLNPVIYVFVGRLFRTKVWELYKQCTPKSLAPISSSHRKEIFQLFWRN
Assay: Antagonist activity at human bradykinin B1 receptor in human MR5 cells assessed as [3H]inositol phosphate accumulation
assay-metric: pIC50
The value called pIC50 is obtained by taking minus log10 of the concentration in mol/L.

Q. Enter recorded pIC50 with B1 bradykinin receptor (Homo sapiens, UniProt P46663) for O=C(Nc1[nH]nc(C(=O)NCCC2CCN(c3ccncc3)CC2)c1Br)c1ccccc1Cl here.
A. 8.46
